The reported measurements were obtained from PubChem BioAssay (NCI).

System: SK-OV-3 ovarian
Assay: NCI tumour cell line growth inhibition, 48 h
Assignment: determine reported TGI for the given molecules.

Here's what some known entries look like.
Cc1csc(-n2nc(C)cc2C)n1 : > 100 µM
CCOC(NC(=O)CC)(C(F)(F)F)C(F)(F)F : > 100 µM
COc1ccc([As]=[As]c2ccc(OC)c(NCS(=O)(=O)O)c2)cc1NCS(=O)(=O)O (stereo unspecified) : 21.8 µM
N#CC1(Cc2ccccc2)CCCCN1C(=O)c1ccccc1 (stereo unspecified) : > 100 µM
c1ccc2nc3c(cc2c1)Sc1cc2ccccc2[n+]2c1N3CC2 : > 100 µM

For every listed record, write down its TGI.
1. Cc1cccc2c1CC1(Cc3ccccc3C1=O)C2=O (stereo unspecified)
2. O=[N+]([O-])C(=C1NCCN1)C(Cl)=C(Cl)Cl
3. CCC(=O)O[C@@H]([C@H](C)[C@H]1OC(CC)=C(C)C(=O)[C@@H]1C)[C@@H](C)C(=O)CC
4. NC(=O)c1ncn2c1CNC(=O)C2

A)
1: 99.6 µM; 2: > 100 µM; 3: > 100 µM; 4: > 100 µM

For every listed record, write down its TGI.
1. OCCCc1n(Cc2ccc3ccccc3c2)c2ccccc2[n+]1Cc1ccc2ccccc2c1
2. Nc1nc[n+](Cc2ccccc2)c2ncn(Cc3ccccc3)c12

A)
1. 13.6 µM
2. > 100 µM

====

Assignment: determine reported TGI for the given compounds.
Test system: K-562 leukemia
Experiment: NCI tumour cell line growth inhibition, 48 h

Here's what some known entries look like.
S=c1ncc2n[nH]nc2[nH]1 : > 100 µM
O=c1ssc2c1Nc1c(ssc1=O)S2 : 25.2 µM
Cc1ccc(S(=O)(=O)CC(=O)CC(=O)C(=O)Nc2cccc(C(F)(F)F)c2)cc1 : > 100 µM
O=C(O)CCn1cnc2c(=S)nc[nH]c21 : > 100 µM
CCO.CCO.Oc1ccc(Nc2ncns2)cc1.Oc1ccc(Nc2ncns2)cc1.[Ti] : > 100 µM

For every listed record, write down its TGI.
1. CC(C)(C)OC/C=C(\Br)CO
2. CC12CCC(=O)N1c1cnccc1N2 (configuration not stated)
3. Nc1ncc(-c2ccc3ncnc(N4CCc5ccc(Cl)cc54)c3c2)cn1
4. COc1ccc(OC)c(C(=O)c2cccc(C(=O)c3cc(OC)ccc3OC)n2)c1
5. Cc1ccc(/C=C2\COc3ccc(O)c(O)c3C2=O)cc1
6. Cc1ccccc1NC(=O)c1cc2cc(N=Nc3ccccc3C(=O)O)ccc2oc1=O
7. CN(C)c1ccc(C(C#N)NNC(=O)Cc2ccccc2)cc1 (configuration not stated)

A)
1. > 100 µM
2. > 100 µM
3. > 100 µM
4. > 100 µM
5. > 100 µM
6. 79.5 µM
7. > 100 µM

====

System: SNB-78 CNS
Assay: NCI tumour cell line growth inhibition, 48 h
Assignment: determine reported TGI for the given molecules.

COc1c(Cl)cc(Cl)cc1S(=O)O : > 100 µM
O=C1N[C@H](Cc2cnc[nH]2)C(=O)N2CCC[C@@H]12 : > 100 µM
O=C(COc1ccc2c(=O)cc(-c3ccc(Cl)cc3)oc2c1)N1CCN(c2ccccc2)CC1 : > 100 µM
CC(C)=CC1CC(=O)C1(C)Sc1ccccc1 (stereo not given) : > 100 µM
O=C1/C(=N\O)C2CCC1C2 (stereo not given) : > 100 µM

For every listed record, write down its TGI.
1. Cc1[nH]c2ccccc2c1-c1n[nH]c(=O)c2ccccc12
2. C[n+]1[se]c2ccccc2c1Cl
3. CSc1nc2c(nc(N)n2C2OC(CO)C(O)C(O)C2O)c(=O)n1C (stereo not given)
4. CCOc1ccc(Nc2nc(C)c(C(=O)/C=C/c3ccc(Cl)cc3Cl)s2)cc1
5. Clc1ccc(OCCSCCCCCCCCCCSCCOc2ccc(Cl)cc2)cc1

A)
["> 100 µM", "> 72.8 µM", "> 100 µM", "67.9 µM", "> 100 µM"]
